# TGT: Toll-like receptor 2 (Homo sapiens, UniProt O60603)
# Sequence (O60603 whole entry): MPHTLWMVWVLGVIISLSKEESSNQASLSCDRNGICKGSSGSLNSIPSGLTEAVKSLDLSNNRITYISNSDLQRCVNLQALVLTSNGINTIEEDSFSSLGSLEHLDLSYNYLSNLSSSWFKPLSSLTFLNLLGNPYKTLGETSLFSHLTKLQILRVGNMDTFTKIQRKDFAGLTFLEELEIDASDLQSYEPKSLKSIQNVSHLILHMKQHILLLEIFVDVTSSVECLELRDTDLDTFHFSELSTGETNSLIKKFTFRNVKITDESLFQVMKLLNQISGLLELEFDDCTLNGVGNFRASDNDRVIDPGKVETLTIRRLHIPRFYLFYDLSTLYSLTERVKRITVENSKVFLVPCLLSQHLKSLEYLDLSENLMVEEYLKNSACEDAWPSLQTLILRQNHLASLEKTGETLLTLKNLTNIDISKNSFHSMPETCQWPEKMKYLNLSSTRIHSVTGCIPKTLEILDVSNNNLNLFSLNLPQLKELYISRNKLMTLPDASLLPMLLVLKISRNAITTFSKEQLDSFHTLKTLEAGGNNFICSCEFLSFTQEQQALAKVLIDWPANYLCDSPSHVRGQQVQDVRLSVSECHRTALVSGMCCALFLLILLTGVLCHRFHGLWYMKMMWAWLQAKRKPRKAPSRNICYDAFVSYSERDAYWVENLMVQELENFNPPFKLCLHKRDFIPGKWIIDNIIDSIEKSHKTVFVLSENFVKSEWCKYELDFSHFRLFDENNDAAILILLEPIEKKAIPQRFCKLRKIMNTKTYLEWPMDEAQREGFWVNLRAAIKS
# TEST: Agonist activity at human TLR2 expressed in HEK-Blue cells harboring NFkB promoter-driven secreted alkaline phosphatase assessed as induction of NFkB after 12 hrs by spectrophotometric assay
# Format: cell-based
VALUE_KIND: EC50 (nM)

CC1CCc2cc(F)cc3c(O)c(C(=O)NCc4cccnc4)c(=O)n1c23 (stereo not drawn)    300

P = CC1CCc2cc(F)cc3c(O)c(C(=O)NCCc4cccnc4)c(=O)n1c23 (stereo not drawn)
Q = CC1CCc2cc(F)cc3c(O)c(C(=O)NCc4ccc(N)nc4)c(=O)n1c23 (stereo not drawn)
Select the item whose EC50 value is smaller, choosing between P and Q . Bench note: the answer is the label of the chosen record.
Q
